method.notes: adipocyte viability effects, profiling panel, cell-based, 3T3-L1 adipocytes, calcein-AM fluorescence, 48 h, basal (AID 1163); further: test concentration not given here
measurement.context: 3T3-L1 adipocytes viability, higher = more signal
Labelling field: enter t if recorded z-score is less than 0.1. Enter f if it equals or exceeds that cut-off.

Prompt: In plain terms, does CS(=O)(=O)CCOC(=O)C1=CC(CCCO)=CC(c2ccc(CN3CCCC3)cc2)N(Cc2cc3c(cc2Br)OCO3)C=C1C(=O)OCCS(C)(=O)=O (stereo unspecified) come in under 0.1 for z-score?
Response: t

Prompt: Queued: CCCC[C@H]1OB(O)C[C@H]2C1=C(COc1ccccc1)C[C@H]1C(=O)N(C)C(=O)[C@H]12
Response: t

Prompt: Queued: Cc1ccc(S[C@]2(C(=O)NCCN3CCOCC3)CC(=O)N(Cc3ccccc3)[C@@H]2c2ccc(CO)cc2I)cc1
Response: f

Prompt: Queued: COCCCN1C(=O)[C@@]2(c3ccc([N+](=O)[O-])cc3)CC(=O)N(C3CCCCC3)[C@@H]2c2ccc(CO)cc21
Response: t

Prompt: Queued: Cc1ccc(S[C@]2(C(=O)NCC(C)C)CC(=O)N(Cc3cc(C(F)(F)F)cc(C(F)(F)F)c3)[C@@H]2c2ccc(CO)cc2I)cc1
Response: f

Prompt: Queued: [N-]=[N+]=Nc1ccccc1C[C@]1(C(N)=O)N=C(c2ccc(OCCCO)cc2)O[C@H]1c1ccccc1
Response: f

Prompt: Queued: CCOc1cc(C(O)C2C=CC3C(=O)N(c4ccccc4)C(=O)C3N2Nc2ccccc2)ccc1O (stereo unspecified)
Response: t

Prompt: Queued: CC(C)N1C(=O)[C@@]2(Cc3ccccc31)c1ccccc1C(=O)N(C1CCCCC1)[C@H]2c1ccc(CO)cc1
Response: t

Prompt: Queued: CC(C)C[C@@H]1NC(=O)[C@H]2C[C@@H](C(=O)NCCCCCCN(C)C)[C@@H](c3ccc(O)cc3)N2C1=O
Response: t

Prompt: Queued: CN1C(=O)C2C=CC(C(O)C3=C[C@H]4C[C@@H](C3)C4(C)C)N(Nc3ccccc3)C2C1=O (stereo partly specified)
Response: t

Prompt: Queued: CCCC[C@@H]1C[C@H]1[C@@H](NC(=O)c1ccco1)c1ccc(C(=O)OC)cc1
Response: t

Prompt: Queued: C=CC[C@@]1(C(=O)NCc2ccccc2)N=C(c2ccc(OCCCO)cc2)O[C@@H]1c1ccccc1N=[N+]=[N-]
Response: f

Prompt: Queued: OC([C@@H]1CC(c2ccccc2)=NO1)[C@H]1CC(c2ccccc2)=NO1 (stereo partly specified)
Response: f

Prompt: Queued: CN(C)CCCNC(=O)[C@@]1(c2ccc([N+](=O)[O-])cc2)CC(=O)N(C2CCCCC2)[C@@H]1c1ccc(CO)cc1
Response: t

Prompt: Queued: CN1C(=O)C2C=CC(C(O)c3cccs3)N(Nc3ccccc3)C2C1=O (stereo unspecified)
Response: t

Prompt: Queued: O=C(c1ccccc1)N1Cc2ccccc2[C@@H]2OC(c3ccc(OCCCO)cc3)=N[C@]2(Cc2ccccc2)C1=O
Response: f

---

system.tested: Left-right determination factor 2 (Homo sapiens) (UniProt O00292)
Sequence (O00292 whole entry, looked up): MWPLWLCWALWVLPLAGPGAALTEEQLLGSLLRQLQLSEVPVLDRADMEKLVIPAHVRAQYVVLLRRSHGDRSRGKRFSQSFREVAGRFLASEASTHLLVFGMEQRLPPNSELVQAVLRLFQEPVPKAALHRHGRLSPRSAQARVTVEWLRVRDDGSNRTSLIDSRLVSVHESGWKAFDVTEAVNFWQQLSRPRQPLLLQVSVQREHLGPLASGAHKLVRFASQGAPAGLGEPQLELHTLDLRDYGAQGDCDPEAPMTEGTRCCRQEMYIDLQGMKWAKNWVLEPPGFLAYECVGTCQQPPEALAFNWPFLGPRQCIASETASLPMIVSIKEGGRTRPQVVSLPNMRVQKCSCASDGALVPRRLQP
method.notes: LEFTY2 binders on small-molecule microarrays, primary screen, biochemical, small-molecule microarray, 635 nm fluorescence scan (AID 1110)
measurement.context: LEFTY2 binding, higher = more signal
I'd be grateful if you could share measured composite z-score for these entries.

Prompt: // query composite z-score value for entry O=C(NCC(F)(F)F)[C@@H]1c2ccccc2C(=O)N(C2CCCCC2)[C@H]1c1ccc(CO)cc1
Response: -0.382

Prompt: Queued: CCCCN1CC=CC23O[C@@H]4C=CCOC(=O)[C@@H]4[C@H]2C(=O)N(CCCCCO)[C@@H]3C1=O (some centres not stated)
Response: -1.53

Prompt: Queued: COc1ccc(CCNC(=O)[C@@H]2c3ccccc3C(=O)N(C3Cc4ccccc4C3)[C@H]2c2ccc(CO)cc2)cc1
Response: 0.0971

Prompt: Queued: COc1ccc(CCNC(=O)[C@@]2(C)c3ccccc3C(=O)N(Cc3cc(F)cc(C(F)(F)F)c3)[C@H]2c2ccc(CO)cc2)cc1
Response: -0.454

Prompt: Queued: CN1C(=O)C2C=CC(C(O)c3cccs3)N(Nc3ccccc3)C2C1=O (configuration not stated)
Response: 0.0032

Prompt: Queued: C=C(COC)/C(=C/C[C@@H](OC(C)=O)c1ccc(OCCO)cc1)c1cc(C(=O)OC)ccc1OC
Response: 0.417

Prompt: Queued: COCCOC(=O)N1C(=O)[C@@]2(c3cc(C#Cc4ccc(OC)cc4)ccc31)[C@H](c1ccccc1OCCO)N1[C@H](c3ccccc3)[C@H](c3ccccc3)OC(=O)[C@H]1[C@@H]2C(=O)N1CCN(c2ncccn2)CC1
Response: 0.278
